biological target: Mitotic checkpoint serine/threonine-protein kinase BUB1 (Homo sapiens, UniProt O43683); experiment: Kinase Assay: In a typical assay 11 different concentrations of each compound (0.1 nM, 0.33 nM, 1.1 nM, 3.8 nM, 13 nM, 44 nM, 0.15 μM, 0.51 μM, 1.7 μM, 5.9 μM and 20 μM) were tested in duplicate within the same microtiter plate. To this end, 100-fold concentrated compound solutions (in DMSO) were previously prepared by serial dilution (1:3.4) of 2 mM stocks in a clear low volume 384-well source microtiter plate (Greiner Bio-One, Frickenhausen, Germany), from which 50 nl of compounds were transferred into a black low volume test microtiter plate from the same supplier. […] The resulting mixture (5 μL final volume) was incubated at 22° C. during 60 min., and the reaction was stopped by the addition of 5 μL of an aqueous EDTA-solution (50 mM EDTA, in 100 mM HEPES pH 7.5 and 0.2% (w/v) bovine serum albumin) which also contained the TR-FRET detection reagents (0.2 μM streptavidin-XL665 [Cisbio Bioassays, Codolet, France] and 1 nM anti-phosho-Serine antibody [Merck Millipore, cat. #35-002] and 0.4 nM LANCE EU-W1024 labeled anti-mouse IgG antibody [Perkin-Elmer, product no. AD0077, alternatively a Terbium-cryptate-labeled anti-mouse IgG antibody from Cisbio Bioassays can be used]). The stopped reaction mixture was further incubated 1 h at 22° C. in order to allow the formation of complexes between peptides and detection reagents.
Sequence (O43683 whole entry): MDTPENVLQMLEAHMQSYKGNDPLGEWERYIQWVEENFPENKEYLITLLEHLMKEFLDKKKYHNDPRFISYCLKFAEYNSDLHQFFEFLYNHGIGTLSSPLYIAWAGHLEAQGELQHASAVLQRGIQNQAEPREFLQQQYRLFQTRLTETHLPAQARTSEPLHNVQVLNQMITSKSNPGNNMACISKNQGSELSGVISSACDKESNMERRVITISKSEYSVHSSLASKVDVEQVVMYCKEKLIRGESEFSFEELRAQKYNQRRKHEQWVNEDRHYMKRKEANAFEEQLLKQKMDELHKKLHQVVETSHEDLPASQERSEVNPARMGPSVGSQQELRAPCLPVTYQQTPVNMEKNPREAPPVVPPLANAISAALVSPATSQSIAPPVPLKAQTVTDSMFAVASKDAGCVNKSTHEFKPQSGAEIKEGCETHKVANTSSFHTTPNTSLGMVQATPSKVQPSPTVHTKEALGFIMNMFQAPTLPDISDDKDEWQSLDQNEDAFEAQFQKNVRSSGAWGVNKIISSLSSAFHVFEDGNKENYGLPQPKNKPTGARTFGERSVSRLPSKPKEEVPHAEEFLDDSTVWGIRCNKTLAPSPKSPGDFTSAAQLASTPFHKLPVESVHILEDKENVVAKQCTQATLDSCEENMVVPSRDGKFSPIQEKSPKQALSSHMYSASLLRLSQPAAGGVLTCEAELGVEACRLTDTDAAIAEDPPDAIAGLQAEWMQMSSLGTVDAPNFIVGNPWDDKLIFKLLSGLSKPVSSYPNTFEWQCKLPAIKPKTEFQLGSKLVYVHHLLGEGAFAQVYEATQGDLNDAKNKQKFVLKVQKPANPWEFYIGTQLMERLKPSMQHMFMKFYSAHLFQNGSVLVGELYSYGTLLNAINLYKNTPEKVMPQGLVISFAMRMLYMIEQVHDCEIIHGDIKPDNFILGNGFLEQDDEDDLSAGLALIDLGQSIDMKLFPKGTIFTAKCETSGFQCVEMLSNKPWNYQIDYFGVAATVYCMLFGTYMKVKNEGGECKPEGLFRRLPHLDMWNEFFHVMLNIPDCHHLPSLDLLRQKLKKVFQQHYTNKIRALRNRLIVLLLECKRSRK
Quantity Name: log10 IC50 (log10 of the value in nM)
Note the log scale: values are log10 of IC50 expressed in nM.

chemical_string=CC1(C)CC(=O)c2c([nH]c(-c3ccnc(NS(C)(=O)=O)c3)c2Nc2ccccc2)C1 quantity_name="log10 IC50" recorded_result=2.87
chemical_string=CC(C)Oc1cccc(Nc2c(-c3ccncc3)[nH]c3c2C(=O)CC(C)(C)C3)c1 quantity_name="log10 IC50" recorded_result=3.07
chemical_string=CS(=O)(=O)Nc1cc(-c2[nH]c3c(c2Nc2ccccc2)C(=O)CCC3)ccn1 quantity_name="log10 IC50" recorded_result=3.82
chemical_string=CC1(C)CC(=O)c2c([nH]c(-c3ccnc(Br)c3)c2Nc2ccccc2)C1 quantity_name="log10 IC50" recorded_result=2.00
chemical_string=CC(=O)Nc1cc(-c2[nH]c3c(c2Nc2ccc(F)cc2)C(=O)CCC3)ccn1 quantity_name="log10 IC50" recorded_result=1.77

Q: Give its log10 IC50 value. Item: `CC1(C)CC(=O)c2c([nH]c(-c3ccnc(Nc4cccc(F)c4)c3)c2Nc2cccc(F)c2)C1`
Result: 2.70

Q: Bench note: what log10 IC50 did `CC1(C)CC(=O)c2c([nH]c(-c3ccnc(Cl)c3)c2Nc2ccccc2)C1` show?
Result: 1.73

Q: Entry under review: `Cc1cccc(Nc2c(-c3ccncc3)[nH]c3c2C(=O)CC(C)(C)C3)c1F` . Reported log10 IC50?
Result: 1.93
